tested on: Leishmania infantum promastigote forms (MHOM/BR/BH46); experiment: In vitro leishmanicidal activity against promastigotes (Neubauer chamber counting); type: cell-based; conditions: CC50 J774 macrophages / IC50 promastigotes
metric: SI (CC50/IC50)
Answers are plain numbers.

C[C@@H]1[C@H](O)[C@@H](C)/C=C/C=C/C=C/C=C/C=C/C=C/C=C/[C@H](O[C@@H]2O[C@H](C)[C@@H](O)[C@H](N)[C@@H]2O)C[C@@H]2O[C@](O)(C[C@@H](O)C[C@@H](O)[C@H](O)CC[C@@H](O)C[C@@H](O)CC(=O)O[C@H]1C)C[C@H](O)[C@H]2C(=O)O [Amphotericin B, reference compound]
350

Would you kindly look at the next entry?
Exercise: Quickly give me recorded SI (CC50/IC50) for `C=CCNC(=S)N/N=C\c1c[nH]c2c(C)cccc12`
Solution: 4.3

====

tested on: Leishmania infantum promastigote forms (MHOM/BR/BH46); test: In vitro leishmanicidal activity against promastigotes (Neubauer chamber counting); type: cell-based; details: Leishmania infantum, 72 h, L. infantum promastigotes, linear regression
metric: IC50

# count of solved cases: 4
N#Cc1ccc2[nH]cc(/C=N/NC(=S)Nc3ccccc3)c2c1
< 20 µM
S=C(N/N=C/c1c[nH]c2ncccc12)Nc1ccccc1
10 to 14 µM
C=CCNC(=S)N/N=C\c1c[nH]c2c(C)cccc12
< 20 µM
N#Cc1ccc2[nH]cc(/C=N/NC(=S)Nc3ccc(Cl)cc3)c2c1
10 to 14 µM

Moving on to another compound below.
Exercise: Provide IC50, system Leishmania infantum promastigote forms (MHOM/BR/BH46), entry C[C@@H]1[C@H](O)[C@@H](C)/C=C/C=C/C=C/C=C/C=C/C=C/C=C/[C@H](O[C@@H]2O[C@H](C)[C@@H](O)[C@H](N)[C@@H]2O)C[C@@H]2O[C@](O)(C[C@@H](O)C[C@@H](O)[C@H](O)CC[C@@H](O)C[C@@H](O)CC(=O)O[C@H]1C)C[C@H](O)[C@H]2C(=O)O [Amphotericin B, reference compound]
Solution: 0.04 µM
